Consider the following compounds and their measured growth inhibition readings.
assay-info: NCI Yeast Anticancer Drug Screen. Data for the mlh1 rad18 strain (AID 175)
condition-notes: S. cerevisiae mlh1 rad18 strain growth inhibition; at 50.0 µM; hits give high values
Compounds without any hit were thinned out: in the full panel of roughly 79,000, 15% have a hit. The source made the active and inactive calls. No stated cut-off is given here; in the data, active means growth inhibition above about 70%; inactive means the rest.

- compound: "C=C1C(=O)[C@@]23CC[C@H]4[C@@](C)(CCC[C@@]4(C)C(=O)OC)[C@@H]2CC[C@]1(O)C3"
  growth inhibition: "90.8% (active)"
- compound: "CC(C)CCCC(C)C1CCC2C3CC=C4OC(=O)CCC4(C)C3CCC12C (stereo not drawn)"
  growth inhibition: "90.6% (active)"
- compound: "CC(C)C1=CC(=O)C2=C(CCC3C(C)(C(=O)O)CCC[C@]23C)C1=O (stereo partly drawn)"
  growth inhibition: "91.7% (active)"
- compound: "CCCCCCCCCCCCCCCCCC(=O)OCCOCCO"
  growth inhibition: "-21.6% (inactive)"
- compound: "CNC(=O)c1cccc2c(Nc3ccc(NS(C)(=O)=O)cc3OC)c3cccc(C)c3nc12"
  growth inhibition: "-24.5% (inactive)"
- compound: "[N-]=[N+]=NC1=CC(=O)c2cccc3cccc1c23"
  growth inhibition: "89.5% (active)"
- compound: "O=C(CCCN1CCN2Cc3[nH]c4ccccc4c3CC2C1)c1ccc(F)cc1 (stereo not drawn)"
  growth inhibition: "99.3% (active)"
- compound: "CO/N=C/c1cc(NC(=S)c2ccoc2C)ccc1Cl"
  growth inhibition: "91.2% (active)"
- compound: "c1ccc(B2OC(c3ccccc3)C(c3ccccc3)O2)cc1 (stereo not drawn)"
  growth inhibition: "8.85% (inactive)"
- compound: "CCCCCCCCCCCCCCCC(=O)N1CCOCC1"
  growth inhibition: "28.1% (inactive)"
- compound: "CCCCC(O)(c1ccc2nc(NC(=O)OC)[nH]c2c1)c1cccs1 (stereo not drawn)"
  growth inhibition: "94.5% (active)"
- compound: "CN(C)CCCNCC(=O)Nc1ccc(S(=O)(=O)c2ccc(NC(=O)CNCCCN(C)C)cc2)cc1"
  growth inhibition: "90.2% (active)"
- compound: "COc1ccc2cc3c4cc(OC)c(OC)cc4ccn3c2c1"
  growth inhibition: "91.5% (active)"
- compound: "CCCCCCCCCCCCCCCCCC[N+]1(C)CCC[N+](C)(CCCCCCCCCCCCCCCCCC)CC1 (stereo not drawn)"
  growth inhibition: "84% (active)"
- compound: "CC(=O)OC1CCC2(C)C(=CCC3C2CCC2(C)C(C(C)N)CCC32)C1 (stereo not drawn)"
  growth inhibition: "98.1% (active)"
- compound: "C/C(=N/NC(=S)Nc1ccccc1Cl)c1ccccn1"
  growth inhibition: "77.2% (active)"
- compound: "COC1CC(C)(NC(C)=O)C2OC(c3ccccc3)OCC2O1 (stereo not drawn)"
  growth inhibition: "70.4% (active)"
- compound: "CN(C)CCCN=c1c2ccccc2n(O)c2ccccc12"
  growth inhibition: "8.3% (inactive)"
